Please go through the items and note down their TGI.
- System: SF-539 CNS
- protocolDescription: NCI tumour cell line growth inhibition, 48 h
*1 amine or outer side, *2 acyl side, *3 side chain or, on linkers, in order; H or OH if unused. Where a SMILES comes first, the peptide text is derived from it. [ ]: non-standard residue; d: D form. The star is where a group is joined. X31 = CC(=O)N(C)SCC(N[*:1])C(=O)[*:2]; Cbz = O=C(OCc1ccccc1)*; Bn = c1ccc(C*)cc1; For = O=C*

Qu. Look at this compound and give its reported TGI. Nc1ncnc2nc[nH]c12
Ans. > 250 µM

Qu. Look at this compound and give its reported TGI. CCOC(=O)/C(C#N)=C\c1ccc(N(CCC(=O)O)CCC(=O)O)c(I)c1
Ans. > 10 µM

Qu. Look at this compound and give its reported TGI. CCc1n[nH]c(=O)n1/N=C/c1c(O)ccc2ccccc12
Ans. > 100 µM

Qu. Look at this compound and give its reported TGI. CN(C)CC/C(=N\Nc1ccc([N+](=O)[O-])cc1)c1ccccc1
Ans. 20.3 µM

Qu. Look at this compound and give its reported TGI. CN(CCCn1c2c(c3ccccc3c1=O)C(=O)c1ccccc1-2)CCCn1c2c(c3ccccc3c1=O)C(=O)c1ccccc1-2
Ans. 0.75 µM

Qu. Look at this compound and give its reported TGI. O=C(c1cccs1)N(C(=S)N1CCN(c2ccccn2)CC1)c1ccccc1
Ans. > 100 µM

Qu. Look at this compound and give its reported TGI. CCC1C2Cc3ccc(O)cc3C1(CC)CCN2C (stereo unspecified)
Ans. > 100 µM

Qu. Look at this compound and give its reported TGI. Cc1ccc(Nc2n[nH]c(=S)s2)cc1C
Ans. > 100 µM

Qu. Look at this compound and give its reported TGI. CCC(C)(CC(C)(C)C(=O)NCC(=O)NC(Cc1ccccc1)C(=O)NC(Cc1ccccc1)C(=O)NCC(=O)NC1CC(OC2CC(O)(C(=O)CO)Cc3c(O)c4c(c(O)c32)C(=O)c2c(OC)cccc2C4=O)OC(C)C1O)C(=O)NCC(C)O (stereo unspecified)
Ans. > 150 µg/mL

Qu. Look at this compound and give its reported TGI. CC(=O)OC1COC(n2c(O)c(N=NC(N)=S)c3cc(Br)ccc32)C(OC(C)=O)C1OC(C)=O (stereo unspecified)
Ans. > 100 µM

Qu. Look at this compound and give its reported TGI. COc1ccc(C(=O)OC2C(OC3C(O)COC(O[C@H]4C[C@H]5[C@@H]6CC=C7C[C@@H](O)CC[C@]7(C)[C@H]6CC[C@]5(C)[C@H]4[C@H](C)C(=O)CCC(C)C)C3OC(N)=O)OCC(O)C2O)cc1 (stereo partly specified)
Ans. 0.0685 µM

Qu. Look at this compound and give its reported TGI. COCCOC(=O)c1c(C)n([O-])c2cc(Cl)c(Cl)cc2[n+]1=O
Ans. 51.1 µM

Qu. Look at this compound and give its reported TGI. O=C(CCCCCCCCC(=O)N/N=C\c1ccccc1O)N/N=C\c1ccccc1O
Ans. 17.4 µM

Qu. Look at this compound and give its reported TGI. CC(=O)N(C)SCC(NC(=O)C(Cc1ccccc1)NC(=O)OCc1ccccc1)C(=O)NC(Cc1ccccc1)C(=O)NC(Cc1cn(C=O)c2ccccc12)C(=O)NC(CCCCNC(=O)OCc1ccccc1)C(=O)NC(C(=O)NC(CSN(C)C(C)=O)C(=O)NC(C(N)=O)C(C)OCc1ccccc1)C(C)OCc1ccccc1 (stereo unspecified) (Cbz-F[X31]FW(For)K(Cbz)T(Bn)[X31]T(Bn)-NH2; configuration not given here)
Ans. > 100 µM

Qu. Look at this compound and give its reported TGI. C[N+](C)(C)CC(=O)N/N=C/c1oc(-c2c(O)ccc3ccccc23)c(-c2c(O)ccc3ccccc23)c1[N+](=O)[O-]
Ans. 29.4 µM

Qu. Look at this compound and give its reported TGI. O=C1/C(=C/c2ccccc2O)N=C(c2ccccc2)N1C1Nc2cc3c(cc2S1)NC(N1C(=O)/C(=C/c2ccccc2O)N=C1c1ccccc1)S3 (stereo unspecified)
Ans. > 100 µM

Qu. Look at this compound and give its reported TGI. C(#Cc1ccccc1C#Cc1cccs1)c1cccs1
Ans. > 100 µM

Qu. Look at this compound and give its reported TGI. O=C1C(Cl)C2(CC(/C=C/c3ccccc3Cl)=NN2c2cccc(S(=O)(=O)O)c2)N1c1nc2ccccc2s1 (stereo unspecified)
Ans. 37.6 µM

Qu. Look at this compound and give its reported TGI. O=C1c2ccccc2C(O)(O)C1(O)C1(O)C(=O)c2ccccc2C1(O)O (stereo unspecified)
Ans. > 100 µM

Qu. Look at this compound and give its reported TGI. CC/C=C1/C(=O)C=C[C@@H]1C/C=C\CCCC(=O)OC
Ans. 13.7 µM

Qu. Look at this compound and give its reported TGI. CCOC(=O)NC(=O)c1cn(CCOC(=O)CCCCCCCCC(=O)OCCn2cc(C(=O)NC(=O)OCC)c(=O)[nH]c2=O)c(=O)[nH]c1=O
Ans. > 100 µM

Qu. Look at this compound and give its reported TGI. C=C(C)C1=CCC[C@]2(C1)N=C(OC)[C@@H](C(C)C)N=C2OC
Ans. > 100 µM

Qu. Look at this compound and give its reported TGI. COC1CC(OS(=O)(=O)c2ccc([N+](=O)[O-])cc2)C(OC(=O)c2ccccc2)C(C)O1 (stereo unspecified)
Ans. > 100 µM

Qu. Look at this compound and give its reported TGI. COC(=O)C1(C)CCC(c2ccc(C)cc2)=C(CC(=O)O)C1 (stereo unspecified)
Ans. > 100 µM

Qu. Look at this compound and give its reported TGI. CCN(CC)CCCCNc1c2ccccc2[n+](C)c2c1[nH]c1ccccc12
Ans. 1.74 µM

Qu. Look at this compound and give its reported TGI. C[C@]12CCC(=O)C=C1CC[C@@H]1[C@@H]2CC[C@]2(C)C(=O)NC(=O)C[C@@H]12
Ans. > 100 µM

Qu. Look at this compound and give its reported TGI. FC(F)(F)c1ccc(Nc2nc(-c3c(C(F)(F)F)nc4ccccn34)cs2)cc1
Ans. 0.276 µM

Qu. Look at this compound and give its reported TGI. CCOc1ccc(NC(=O)C(=O)CC(=O)c2sc(NNC(C)=O)nc2C)cc1
Ans. > 100 µM

Qu. Look at this compound and give its reported TGI. O=C([O-])C[n+]1ccccc1
Ans. > 100 µM

Qu. Look at this compound and give its reported TGI. COc1ccc(Br)c(N/N=C2\CCCNC2=O)c1
Ans. > 100 µM

Qu. Look at this compound and give its reported TGI. COC(=O)C1(CCC(C)=O)CCCCCC1=O (stereo unspecified)
Ans. > 100 µM

Qu. Look at this compound and give its reported TGI. OC1(c2cccs2)c2cccc(Cl)c2C(O)(c2cccs2)c2c(Cl)cccc21 (stereo unspecified)
Ans. > 100 µM

Qu. Look at this compound and give its reported TGI. Nc1ncnn2c(C3OC(CO)C(O)C3O)ccc12 (stereo unspecified)
Ans. 0.403 µM

Qu. Look at this compound and give its reported TGI. Cc1cccc(C)c1NC(=O)C(C#N)C1=C(Cl)C(=O)c2ccccc2C1=O (stereo unspecified)
Ans. 48.1 µM

Qu. Look at this compound and give its reported TGI. C=C(C)C(=O)O[C@H]1CC(=C)[C@@H]2C[C@H](O)[C@](O)(CCl)[C@@H]2[C@H]2OC(=O)C(=C)[C@@H]21
Ans. 4.35 µM

Qu. Look at this compound and give its reported TGI. Cc1ccc2c(c1)[nH]c(=S)n2/C=C1\C(=O)Oc2ccccc2C1=O
Ans. > 100 µM

Data origin: PubChem BioAssay (NCI)
